meta.source: patent US20250197451A1

Tgt: T1, biotin-labelled EZH2 protein (UniProt Q15910 1-746, limits assumed, biotin label (EZ-link NHS-PEO4-Biotinylation kit))
T1 construct: Probe in solution (1 ug/ml) on the KDM2B peptide microarray; also called NHS-PEO4-Biotinylation-labelled EZH2 protein; recombinant protein
Experimental Details: KDM2B peptide array probed with biotin-EZH2 1 ug/ml, SA-HRP/ECL;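 also: 100% is the highest background-corrected spot optical density on the membrane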;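 also: Background-corrected optical density of each spot on the membrane, given as percent of the brightest spot (100%), color developed for 5 minutes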
Test Readout: Intensity (%)
Only the number, expressed in %, is required.

In [3]: df
Out[3]:
                          binder   val
0  SKELNHEIQRTENSL [peptide 191]     0
1  LRSPPRVISRPPPSV [peptide 204]  1.91
2  LSRELSKELNHEIQR [peptide 190]  0.26

// Intensity (%) value for GWIHAVYTPVDSLVF [peptide 63] : 1.74

So for GEAGKEDTVEEEEGK [peptide 134] , the logged Intensity (%) turned out to be 0

// field: Intensity (%); key: TKLEHLVKRPTVVDL [peptide 37] ; value = 0.73

For QTEATNAIAEMKYPK [peptide 43] the binder record lists Intensity (%) as 0

Intensity (%) measured on LMLSGIIRRQPVSLD [peptide 224] = 0

Memo: LRDLVLSGCSWIAVS [peptide 231] , reported Intensity (%): 100

Looking up KLRNIVELRLAGLDI [peptide 243] , I found its Intensity (%) recorded as 0.92

Per the record, QRDKLYNVISLEFSH [peptide 34] has Intensity (%) of 0

Intensity (%) recorded for this binder, LEFSHTKLEHLVKRP [peptide 36] , is 0.89

Consider EVSAKWTHLTEFELK [peptide 101] . Its measured Intensity (%) is 2.69

For this binder ( LVKRPTVVDLVDWVD [peptide 38] ), measured Intensity (%) is 0

The value of Intensity (%) measured for the binder MRDLLSPPTDNRPGQ [peptide 239] turned out to be 1
